experiment: Inhibition of calcium calmodulin-dependent cGMP-Phosphodiesterase 1
Experimental Endpoint: IC50 (µM)
Please give a number only; it is taken to be in µM.

Record `CCCCc1nc(Cl)c(CO)n1Cc1ccc(-c2ccccc2-c2nnn[n-]2)cc1.[K+]` , field IC50: 100

###

test: Inhibition of Phosphodiesterase 4
Experimental Endpoint: IC50 (µM)
Answer format: numeric, µM implied, no suffix.

# compound `CCCCc1nc(Cl)c(CO)n1Cc1ccc(-c2ccccc2-c2nnn[n-]2)cc1.[K+]` ; its IC50 = 26

###

Biological target: Type-1 angiotensin II receptor (Homo sapiens) (UniProt P30556)
Sequence (whole entry): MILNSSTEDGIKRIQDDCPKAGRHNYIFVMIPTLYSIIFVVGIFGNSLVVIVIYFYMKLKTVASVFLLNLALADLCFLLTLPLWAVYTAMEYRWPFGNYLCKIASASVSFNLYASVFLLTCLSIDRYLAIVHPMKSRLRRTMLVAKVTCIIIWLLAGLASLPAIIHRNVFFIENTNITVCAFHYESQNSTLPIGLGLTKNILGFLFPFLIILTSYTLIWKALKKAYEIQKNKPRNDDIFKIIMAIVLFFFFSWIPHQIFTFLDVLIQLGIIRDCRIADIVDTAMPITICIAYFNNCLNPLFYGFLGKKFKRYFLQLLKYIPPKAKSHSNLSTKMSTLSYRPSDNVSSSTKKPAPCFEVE
Test: Inhibition against Angiotensin II receptor, type 1
Experimental Endpoint: AT1 affinity (nM l-1)
State the answer as a number, implicitly in nM l-1.

See these solved cases before continuing.
CCCCC(=O)N(Cc1ccc(-c2ccccc2-c2nnn[nH]2)cc1)[C@H](C(=O)O)C(C)C = 1.4
CCCCc1nc(Cl)c(C(=O)O)n1Cc1ccc(-c2ccccc2-c2nn[nH]n2)cc1 [CARBOXYLIC ACID METABOLITE] = 1.3
Cc1nc(C)c2c(n1)N(Cc1ccc(-c3ccccc3-c3nnn[nH]3)cc1)C(=O)CC2 [TASOSARTAN] = 1.2
CCCCc1ncc(/C=C(\Cc2cccs2)C(=O)O)n1Cc1ccc(C(=O)O)cc1 [EPROSARTAN] = 1.5
CCCc1nc2c(C)cc(-c3nc4ccccc4n3C)cc2n1Cc1ccc(-c2ccccc2C(=O)O)cc1 = 1

The recorded AT1 affinity for entry `CCOc1nc2cccc(C(=O)O)c2n1Cc1ccc(-c2ccccc2-c2nnn[nH]2)cc1` equals 0.1

Note to self: AT1 affinity recorded for `CCCCc1nc(Cl)c(C=O)n1Cc1ccc(-c2ccccc2-c2nn[nH]n2)cc1` was 20

AT1 affinity in this record for CCCCC1=NC2(CCCC2)C(=O)N1Cc1ccc(-c2ccccc2-c2nnn[nH]2)cc1 [IRBESARTAN] : 1.3

# AT1 affinity (compound: CCCCc1nc(Cl)c(CO)n1Cc1ccc(-c2ccccc2-c2nnn[n-]2)cc1.[K+] [LOSARTAN POTASSIUM] ) is 6.4
